protocol-conditions: 308.15 K; Liquid; Ebulliometric method (Recirculating still)
± gives the expanded uncertainty stated by the source.
measurement-type: vapor or sublimation pressure
In your response, the unit should come after the numeric value.

The examples below pair each entry with its known result.
CCC(C)Cl (centres undefined) [2-chlorobutane] | 31.55 ± 0.18 kPa
CC(C)CCl [1-chloro-2-methylpropane] | 30.45 ± 0.17 kPa
CC(C)(C)Cl [2-chloro-2-methylpropane] | 59.52 ± 0.3 kPa

Would you mind telling me what vapor or sublimation pressure value was observed for CCCCCC [hexane] ? 30.7 ± 0.17 kPa

###

Documented vapor or sublimation pressure across a set of compounds
protocol-conditions: 298.15 K; Liquid; Ebulliometric method (Recirculating still)
Answer with a number only, understood to be in kPa.

The examples below pair each entry with its known result.
CC(C)CCl [1-chloro-2-methylpropane] | 20.35
CC(C)(C)Cl [2-chloro-2-methylpropane] | 40.13
CCC(C)Cl (centres undefined) [2-chlorobutane] | 20.91

Would you mind telling me what vapor or sublimation pressure value was observed for CCCCCC [hexane] ? 20.22
